Each item that follows carries a reported Kd.
# TARGET_SYSTEM: SKIV2L (hSKI complex subunit);TTC37 (hSKI complex subunit);WDR61 (hSKI complex subunit) (human;human;human, UniProt Q15477;Q6PGP7;Q9GZS3 1-1246;1-1564;1-305, ||)
# PROCEDURE_SUMMARY: EMSA; 2 mM Mg2+; 25 mM Hepes-KOH pH 7.6, 2 mM Mg acetate, 50 mM NaCl, 1 mM DTT, 0.1 mg/ml BSA, 1 nM substrate, 37 C 30 min; 0.7% agarose gel at 4 C
The response must be a number in nM with no trailing unit.

>>> df
                               binder  uom  measured_result
0  GGTTAGGGTTAGGGTTAG (ssDNA) [TEL18]   nM               12

Here's the next entry for you.
In: Which value of Kd has been reported for AGCGTATCCGTTCAGTTG (ssDNA) [Non-TEL18] in the records?
Out: 30
